- ASSAYED SYSTEM: recombinant human mu (MOR) opioid receptor (Homo sapiens, UniProt P35372)
- Construct: expressed in transfected cells; host or cells: CHO-K1 cells (membranes)
- TEST DESCRIPTION: Competitive radioligand binding at MOR ([3H]naloxone), single concentration, CHO-K1 membranes
- MEASUREMENT SETUP: 10 μM test compound; percent inhibition of specific [3H]naloxone (4 nM) binding; read-out: Mu Opioid Receptor Mu Receptor Inhibition % inhib @ 10 uM
READOUT: inhibition at 10 µM (%)
Entry rule: numbers only, all in %.

Note to self: inhibition at 10 µM of CN(C(=O)Cc1ccc(Cl)c(Cl)c1)[C@H](CN1CCCC1)c1cccc(NS(=O)(=O)c2ccc(C#N)c(C(F)(F)F)c2)c1 with recombinant human mu (MOR) opioid receptor (Homo sapiens, UniProt P35372) was 89

Note to self: inhibition at 10 µM of CN([C@H](CN1CC[C@H](O)C1)c1ccc(OCCO)cc1)S(=O)(=O)Cc1ccc(C(F)(F)F)cc1 with recombinant human mu (MOR) opioid receptor (Homo sapiens, UniProt P35372) was -2

Note to self: inhibition at 10 µM of CN(C(=O)Cc1ccc(Cl)c(Cl)c1)[C@H](CN1CCCC1)c1cccc(NS(=O)(=O)c2cn(C)c(=O)n(C)c2=O)c1 with recombinant human mu (MOR) opioid receptor (Homo sapiens, UniProt P35372) was 87.1

---

- ASSAYED SYSTEM: recombinant human kappa (KOR) opioid receptor (Homo sapiens, UniProt P41145)
- TEST DESCRIPTION: Competitive radioligand binding at KOR ([3H]diprenorphine), CHO-K1 membranes
- MEASUREMENT SETUP: read-out: Kappa Opioid Receptor IC50
READOUT: IC50 (nM)
Entry rule: numbers only, all in nM.

Lab note: Cc1ccc(CC(=O)N(C)[C@H](CN2CC[C@H](O)C2)c2ccc(OCCO)cc2)cn1 gave IC50 of 10.3

Lab note: CN(C(=O)Cc1ccc(Cl)c(Cl)c1)[C@H](CN1CCCC1)c1cccc(NS(=O)(=O)c2cn(C)c(=O)n(C)c2=O)c1 gave IC50 of 5.36

Lab note: CN(C(=O)Cc1ccc(Cl)c(Cl)c1)[C@H](CN1CC(O)C1)c1ccc(OCCO)cc1 gave IC50 of 20.8

Lab note: CN(C(=O)Cc1ccc(Cl)c(Cl)c1)[C@H](CN1CCCC1)c1cccc(NS(=O)(=O)c2ccc(C#N)c(C(F)(F)F)c2)c1 gave IC50 of 37.1

Lab note: CN(C(=O)C(c1ccccc1)c1ccccc1)[C@H](CN1CCCC1)c1cccc(NS(=O)(=O)CCOCC(F)(F)F)c1 gave IC50 of 345

Lab note: CN([C@H](CN1CC[C@H](O)C1)c1ccc(OCCO)cc1)S(=O)(=O)Cc1ccc(Cl)c(Cl)c1 gave IC50 of 247

Lab note: CN(C(=O)Cc1ccc(Cl)c(Cl)c1)[C@H](CN1CCCC1)c1cccc(NS(=O)(=O)c2ccc(Cl)nc2)c1 gave IC50 of 2.79

Lab note: COCCN(CCOC)S(=O)(=O)Nc1cccc([C@@H](CN2CCCC2)N(C)C(=O)Cc2ccc(Cl)c(Cl)c2)c1 gave IC50 of 3.58

Lab note: CC(O)CS(=O)(=O)Nc1cccc([C@@H](CN2CCCC2)N(C)C(=O)C(c2ccccc2)c2ccccc2)c1 (some centres unmarked) gave IC50 of 374

Lab note: CN(C(=O)Cc1ccc(Cl)c(Cl)c1)[C@H](CN1CCCC1)c1cccc(NS(=O)(=O)c2cccnc2Cl)c1 gave IC50 of 49.7

Lab note: CN(C(=O)Cc1ccc(Cl)c(Cl)c1)[C@H](CN1CCCC1)c1cccc(NS(=O)(=O)c2cn(C)nc2C(F)(F)F)c1 gave IC50 of 7.74

Lab note: COCCN(C)S(=O)(=O)Nc1cccc([C@@H](CN2CCCC2)N(C)C(=O)Cc2ccc(Cl)c(Cl)c2)c1 gave IC50 of 0.67

Lab note: CC(O)CS(=O)(=O)Nc1cccc([C@@H](CN2CCCC2)N(C)C(=O)Cc2ccc(Cl)c(Cl)c2)c1 (some centres unmarked) gave IC50 of 0.35

Lab note: CC(O)CS(=O)(=O)Nc1cccc([C@@H](CN2CCCC2)N(C)C(=O)Cc2ccc(C(F)(F)F)cc2)c1 (some centres unmarked) gave IC50 of 0.75

Lab note: CN(C(=O)Cc1ccc(Cl)c(Cl)c1)[C@H](CN1CCCC1)c1cccc(NS(=O)(=O)c2cc(Cl)c(Cl)s2)c1 gave IC50 of 9.61

Lab note: CN(C(=O)Cc1ccc(F)cc1F)[C@H](CN1CC[C@H](O)C1)c1ccc(OCCO)cc1 gave IC50 of 5.27

Lab note: Cc1noc(C)c1S(=O)(=O)Nc1cccc([C@@H](CN2CCCC2)N(C)C(=O)Cc2ccc(Cl)c(Cl)c2)c1 gave IC50 of 3.01

Entry source: patent US10322107B2
